Readings of cell viability for the listed molecules
Tested on: NOMO1
Assay: cell viability relative to DMSO control; higher = less cytotoxic
Details: RPMI 5 mM glucose + 10% FBS; 48 h; 0.00702 µM
Kindly report the value followed by its unit.

# example entries with known answers
Cn1cc(C[C@@H](N)C(=O)O)c2ccccc21
96.5%
O=C(Nc1cccnn1)N1CCC(=Cc2cccc(Oc3ccc(C(F)(F)F)cn3)c2)CC1
96.3%
CCN1CCCC1CNC(=O)c1cc([S+](N)(=O)[O-])ccc1OC (configuration not stated)
102%
C[C@H]1O[C@H](C[C@H](O)[C@@H]1O)O[C@H]2[C@@H](O)C[C@@H](O[C@@H]2C)O[C@H]3[C@@H](O)C[C@@H](O[C@@H]3C)O[C@H]4CC[C@@]5(C)[C@H](CC[C@@H]6[C@@H]5C[C@@H](O)[C@]7(C)[C@H](CC[C@]67O)C/8=C/C(=O)OC8)C4
120%
C[S+](=O)([O-])c1ccc(Oc2cc(F)cc(C#N)c2)c2c1[C@H](O)C(F)(F)C2
101%

Give reported cell viability value for O.O.CCN1CCN(C(=O)N[C@H](C(=O)N[C@H]2[C@@H]3SC\C(=C(/N3C2=O)C(O)=O)CSC4=NN=N[N]4C)C5=CC=C(O)C=C5)C(=O)C1=O
88.5%

# return recorded cell viability for input OC[C@H]1O[C@@H]2[C@@H](OC\3=N\C(=N)\C=C/[N@@]23)[C@@H]1O
112%

----------
Test system: NOMO1
Assay: cell viability relative to DMSO control; higher = less cytotoxic
Conditions: RPMI 5 mM glucose + 10% FBS; 48 h; 0.00702 µM
# cell viability per record follows
Numeric only. Scale: %

Record excerpt, results attached:
CCCC1OC2C[C@H]3[C@@H]4CCC5=CC(=O)C=C[C@]5(C)[C@H]4C(O)C[C@]3(C)[C@]2(C(=O)CO)O1 (some centres undefined)
107
CN1CCN(CCCN2c3ccccc3Sc3ccc(C(F)(F)F)cc32)CC1
108
CCOc1ccc(Cc2cc([C@@H]3O[C@H](CO)[C@@H](O)[C@H](O)[C@H]3O)ccc2Cl)cc1
124
CN1CCN(C(=O)O[C@H]2c3nccnc3C(=O)N2c2ccc(Cl)cn2)CC1
92.4
CC(O)C1C2C(C)\C(=C(/N2C1=O)C(O)=O)SC3CNC(C3)C(=O)N(C)C (centres undefined)
85.2

Given OCCn1cc(-c2cnc3nnn(Cc4ccc5ncccc5c4)c3n2)cn1 , respond with its cell viability.
112

Quick one: give measured cell viability for CCOC(=O)Nc1ccc(NCc2ccc(F)cc2)nc1N
103

Please give the documented cell viability of COC1=CC=C2CN(C)CC[C@@]34\C=C/[C@H](O)C[C@@H]3OC1=C24
120

Look up cell viability of O=C(/C=C/c1ccc(O)cc1)c1ccc(O)cc1O and report it.
101

----------
System: SEM cells
Test: AUC of viability dose-response curve (% viability x log10 dose units); higher = less sensitive
Settings: RPMI 5 mM glucose + 10% dialyzed FBS; 48 h
Measured attribute: AUC of viability dose-response curve

Please review the entries below; each comes with its answer.
CC/1=C(/N2[C@H](SC1)[C@H](NC(=O)C(N)C3=CC=CC=C3)C2=O)C(O)=O (stereo partly specified)
467
C[C@H]1O[C@H](C[C@H](O)[C@@H]1O)O[C@H]2[C@@H](O)C[C@@H](O[C@@H]2C)O[C@H]3[C@@H](O)C[C@@H](O[C@@H]3C)O[C@H]4CC[C@@]5(C)[C@H](CC[C@@H]6[C@@H]5C[C@@H](O)[C@]7(C)[C@H](CC[C@]67O)C/8=C/C(=O)OC8)C4
239
C[C@]12CCC\3=C\4CCC(=O)\C=C4CC[C@H]3[C@@H]1CC[C@@]2(O)CC#N
451

For the compound CN(C)/N=N/c1nc[nH]c1C(N)=O , give its reported AUC of viability dose-response curve.
307

// fetch AUC of viability dose-response curve given entry Cc1c(C)c2c(c(C)c1O)CCC(C)(COc1ccc(CC3SC(=O)NC3=O)cc1)O2 (stereo unspecified)
471

# return recorded AUC of viability dose-response curve for input C[S+](=O)([O-])c1ccc(Oc2cc(F)cc(C#N)c2)c2c1[C@H](O)C(F)(F)C2
467

Write down AUC of viability dose-response curve measured for item COc1cc(C)c(Sc2cnc(NC(=O)c3ccc(CNC(C)C(C)C)cc3)s2)cc1C(=O)N1CCN(C(C)=O)CC1 (stereo unspecified)
425

For the compound C[C@](N)(Cc1ccc(O)c(O)c1)C(=O)O , report AUC of viability dose-response curve.
432

Look up and state reported AUC of viability dose-response curve for C=CCO/N=C(/C[C@H]1O[C@@H]2O[C@]3(C)CC[C@H]4[C@H](C)CC[C@@H]([C@H]1C)[C@@]24OO3)[C@H]1O[C@@H]2O[C@]3(C)CC[C@H]4[C@H](C)CC[C@@H]([C@H]1C)[C@@]24OO3
328

Output measured AUC of viability dose-response curve for this item: Nc1cccc2c1C(=O)N(C1CCC(=O)NC1=O)C2=O (stereo unspecified)
388

This collection of values is drawn from the supplement of paper PMC11451515.
